target: Corticotropin-releasing factor receptor 2/Corticotropin-releasing factor-binding protein (Homo sapiens, UniProt P24387+Q13324); test: activators of CRF receptor 2 with binding protein – uHTS hits, confirmation (AID 602473); type: functional; conditions: read-out: EC50_Mean
Sequence (Q13324 whole entry): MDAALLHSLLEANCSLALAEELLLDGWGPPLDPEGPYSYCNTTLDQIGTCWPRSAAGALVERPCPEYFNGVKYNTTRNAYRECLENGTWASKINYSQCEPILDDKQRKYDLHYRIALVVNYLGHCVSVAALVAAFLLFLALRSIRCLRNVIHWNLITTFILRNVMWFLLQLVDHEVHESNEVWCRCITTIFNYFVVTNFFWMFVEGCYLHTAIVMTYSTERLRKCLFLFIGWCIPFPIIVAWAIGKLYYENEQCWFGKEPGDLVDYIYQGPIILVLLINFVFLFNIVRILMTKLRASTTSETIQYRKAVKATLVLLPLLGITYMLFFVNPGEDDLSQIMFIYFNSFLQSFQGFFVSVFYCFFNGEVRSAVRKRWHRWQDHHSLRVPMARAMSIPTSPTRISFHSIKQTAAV
Sequence (P24387 whole entry): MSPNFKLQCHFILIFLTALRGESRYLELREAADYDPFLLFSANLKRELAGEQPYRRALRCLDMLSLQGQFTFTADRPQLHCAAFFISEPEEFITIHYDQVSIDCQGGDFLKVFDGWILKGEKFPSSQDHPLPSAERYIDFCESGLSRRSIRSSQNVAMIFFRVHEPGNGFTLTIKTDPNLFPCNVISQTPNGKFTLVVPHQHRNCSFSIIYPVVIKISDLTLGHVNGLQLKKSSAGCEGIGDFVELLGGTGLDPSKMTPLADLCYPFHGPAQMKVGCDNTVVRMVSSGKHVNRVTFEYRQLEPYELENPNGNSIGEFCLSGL
Activity calls are given as the source filed them. Cut-off read from the data, not from the text of the source: actives have a measured EC50 and inactives only a lower limit.
Each entry below carries its recorded EC50.

Compound: Cc1ccc([C@H]2C(C(=O)O)=CC[C@@H](c3ccc(C)cc3)N2S(=O)(=O)c2ccc(C)cc2)cc1
EC50: 50.2 µM (active)
--
Compound: Cc1ccc(S(=O)(=O)NC2=NCN(C3CCN(Cc4ccccc4)CC3)CN2)cc1
EC50: > 53 µM (inactive)
--
Compound: CCOc1ccc(-c2nn(-c3ccccc3)cc2/C=C2\SC(=S)N(C3CCS(=O)(=O)C3)C2=O)cc1 (centres undefined)
EC50: 13.1 µM (active)
--
Compound: C/C=C(/C)C(=O)OC1CC(C)(C)C[C@H]2C3=CC[C@@H]4[C@@]5(C)CCC(O[C@@H]6O[C@@H](C(=O)O)[C@@H](O)C(O[C@@H]7OC[C@H](O)[C@@H](O)[C@@H]7O[C@@H]7OC(CO)C(O)[C@@H](O)[C@@H]7O)C6O[C@@H]6OC(CO)C(O)C(O)C6O)[C@@](C)(CO)[C@@H]5CC[C@]4(C)[C@]3(C)CC(O)[C@@]12CO (some centres undefined)
EC50: 5.49 µM (active)
--
Compound: Cc1ccc(-c2ccc(SCC(=O)NCC3CCCO3)nn2)cc1 (centres undefined)
EC50: > 53 µM (inactive)

[Q] Output measured EC50 for this item: "CCOCCCn1c(SCc2nc3ccccc3s2)nc2ccccc2c1=O"
[A] > 53 µM (inactive)

[Q] Output measured EC50 for this item: "O=C(Cc1c(O)c2ccccc2[nH]c1=O)OC1CCCCC1"
[A] > 53 µM (inactive)

[Q] Output measured EC50 for this item: Cc1cc(C(=O)CN2C(=O)NC(C)(CC(C)C)C2=O)c(C)n1-c1ccc2c(c1)OCO2 (centres undefined)
[A] > 53 µM (inactive)

[Q] Output measured EC50 for this item: "COc1ccccc1NC(=O)CN1C(=O)CCS(=O)(=O)c2ccccc21"
[A] > 53 µM (inactive)
